- ASSAY_SYSTEM: human NEP (Homo sapiens, UniProt P08473)
- Construct: purchased R&D Systems, Minneapolis, Minn; 1182-ZN
- Sequence (P08473 whole entry): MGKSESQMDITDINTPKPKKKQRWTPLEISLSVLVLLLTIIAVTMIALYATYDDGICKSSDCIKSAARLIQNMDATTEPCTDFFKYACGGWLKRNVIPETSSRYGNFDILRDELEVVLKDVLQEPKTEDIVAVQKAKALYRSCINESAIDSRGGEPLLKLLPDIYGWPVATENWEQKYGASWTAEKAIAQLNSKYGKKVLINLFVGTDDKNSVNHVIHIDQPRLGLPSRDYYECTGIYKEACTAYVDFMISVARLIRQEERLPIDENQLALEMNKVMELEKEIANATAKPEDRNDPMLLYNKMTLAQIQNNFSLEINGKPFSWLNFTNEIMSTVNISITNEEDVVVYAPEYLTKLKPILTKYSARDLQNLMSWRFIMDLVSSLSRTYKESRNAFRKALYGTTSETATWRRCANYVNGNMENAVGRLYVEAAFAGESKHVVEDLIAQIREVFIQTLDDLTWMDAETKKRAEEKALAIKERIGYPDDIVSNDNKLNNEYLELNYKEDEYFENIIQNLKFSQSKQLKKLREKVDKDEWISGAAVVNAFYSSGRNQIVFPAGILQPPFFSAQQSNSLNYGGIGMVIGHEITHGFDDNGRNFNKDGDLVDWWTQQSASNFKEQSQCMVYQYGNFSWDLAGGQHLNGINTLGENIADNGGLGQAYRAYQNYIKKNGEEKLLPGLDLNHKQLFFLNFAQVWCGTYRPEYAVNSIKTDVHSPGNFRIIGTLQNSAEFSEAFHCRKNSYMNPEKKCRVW
- PROTOCOL_TEXT: In vitro enzyme inhibition assay at human NEP (fluorogenic peptide substrate)
- Type: biochemical
- CONDITION_LABEL: recombinant human NEP; substrate Mca-D-Arg-Arg-Leu-Dap-(Dnp)-OH 10 μM; 37° C.; values given as ranges; read-out: pKi values at human NEP (converted)
MEASURE: Ki

Below are worked cases with known answers.
O=C(N[C@H](Cc1ccccc1Cl)[C@@H](O)C(=O)O)c1cc(-c2ccccc2C(F)(F)F)n[nH]1 = 12.6 to 100 nM
Cn1nc(C(=O)N[C@H](Cc2ccccc2Cl)[C@@H](O)C(=O)O)cc1-c1ccccc1 = 12.6 to 100 nM
CN(C)C(=O)c1cc(C(=O)N[C@H](Cc2ccccc2Cl)[C@@H](O)C(=O)O)nn1Cc1ccc(F)cc1 = 12.6 to 100 nM

Consider the compound shown here: `O=C(O)C[C@@H](Cc1ccccc1Cl)NC(=O)c1cc(C(=O)O)[nH]n1` What is its recorded Ki?
12.6 to 100 nM

###

- ASSAY_SYSTEM: human NEP (Homo sapiens, UniProt P08473)
- Construct: purchased R&D Systems, Minneapolis, Minn; 1182-ZN
- PROTOCOL_TEXT: In vitro enzyme inhibition assay at human NEP (fluorogenic peptide substrate)
- Format: biochemical
- CONDITION_LABEL: recombinant human NEP; substrate Mca-D-Arg-Arg-Leu-Dap-(Dnp)-OH 10 μM; 37° C.; values given as ranges; read-out: pKi values at human NEP (converted)
MEASURE: Ki

COc1cccc(Cn2nc(C(=O)N[C@H](Cc3ccccc3)[C@@H](O)C(=O)O)cc2C(=O)O)c1 = 1.26 to 10 nM
O=C(O)C[C@@H](Cc1ccccc1Cl)NC(=O)c1cc(C(=O)O)n(Cc2ccccc2)n1 = 12.6 to 100 nM
O=C(N[C@H](Cc1ccccc1C(F)(F)F)[C@@H](O)C(=O)O)c1cc(C(=O)NC2CC2)[nH]n1 = 12.6 to 100 nM
O=C(N[C@H](Cc1ccccc1Cl)[C@@H](O)C(=O)O)c1cc(C(=O)O)n(Cc2ccccc2Cl)n1 = 1.26 to 10 nM
O=C(N[C@H](Cc1ccccc1Cl)[C@@H](O)C(=O)O)c1cc(C(=O)O)n(Cc2cc(F)ccc2Cl)n1 = 1.26 to 10 nM
O=C(O)C[C@@H](Cc1ccccc1Cl)NC(=O)c1cc(C(=O)O)n(Cc2ccc(Cl)cc2)n1 = 12.6 to 100 nM

Below: the item to evaluate.
Please look up its Ki: `O=C(N[C@H](Cc1ccccc1)[C@@H](O)C(=O)O)c1cc(C(=O)O)n(Cc2ccc(Cl)cc2F)n1`
1.26 to 10 nM

###

# Lookup of reported Ki keyed by entry
- ASSAY_SYSTEM: human NEP (Homo sapiens)
- Construct: purchased R&D Systems, Minneapolis, Minn; 1182-ZN
- PROTOCOL_TEXT: In vitro enzyme inhibition assay at human NEP (fluorogenic peptide substrate)
- Assay type: biochemical
- CONDITION_LABEL: recombinant human NEP; substrate Mca-D-Arg-Arg-Leu-Dap-(Dnp)-OH 10 μM; 37° C.; values given as ranges; read-out: pKi values at human NEP (converted)

COc1ccc(Cn2nc(C(=O)N[C@H](Cc3ccccc3Cl)[C@@H](O)C(=O)O)cc2C(=O)O)c(F)c1F [Example 2-27] = ≤ 1 nM
O=C(O)C[C@@H](Cc1ccccc1C(F)(F)F)NC(=O)c1cc(C(=O)O)[nH]n1 [Example 12] = 12.6 to 100 nM
COc1ccc(Cn2ccc(C(=O)N[C@H](Cc3ccccc3Cl)[C@@H](O)C(=O)O)n2)c(F)c1F [Example 2-65] = 1.26 to 10 nM
O=C(N[C@H](Cc1ccccc1)[C@@H](O)C(=O)O)c1cnn(-c2ccccn2)c1 [Example 9-1] = 12.6 to 100 nM
COc1cccc(Cn2nc(C(=O)N[C@H](Cc3ccccc3Cl)[C@@H](O)C(=O)O)cc2C(=O)O)c1 [Example 2-11] = 1.26 to 10 nM
O=C(N[C@H](Cc1ccccc1Cl)[C@@H](O)C(=O)O)c1cc(C(=O)O)n(Cc2cc(F)cc(Cl)c2)n1 [Example 2-16] = 1.26 to 10 nM

Could you now look at the following molecule, please?
Given the molecule COc1c(F)c(F)c(Cn2nc(C(=O)N[C@H](Cc3ccccc3Cl)[C@@H](O)C(=O)O)cc2C(=O)O)c(F)c1F [Example 2-35] , what is its reported Ki?
≤ 1 nM
